B1: HDV Ribozyme (parent)
chain: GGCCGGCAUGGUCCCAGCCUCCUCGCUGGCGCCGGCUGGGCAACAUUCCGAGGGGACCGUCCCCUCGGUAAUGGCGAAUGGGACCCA

- Variants of: B1
- protocol.notes: self-cleavage, relative activity (ratio to wild type); higher = more cleavage; co-transcriptional
Kind request: treat 0.2 as inclusive, so self-cleavage at 0.2 or higher is Criterion met, anything lower is Criterion not met.

- input.sequence: "GGCCGGCAUGGUCCCAGCCUCCUCGCUGGCGCCGGCUGGGAAACAUUCCGAGGGGACCGUCCCCUCGGUAGUGGCGAAUGGGACCCA [C41A A71G]"
  category.label: "Criterion met"
- input.sequence: "GGCCGGCAUGGUCCCAGCCUCCUCGCGGGCGCCGGCUGGGCAACAUUCGGAGGGGACCGUCCCCUCGGUAAUGGCGAAUGGGACCCA [U27G C49G]"
  category.label: "Criterion met"
- input.sequence: "GGCCGGCAUGGUCCCAGCCUCCUCGCUGGCGCCGGCUGGGCAACAUUCCUAGGGGACCGUCUCCUCGGUAAUGGCGAAUGGGACCCA [G50U C62U]"
  category.label: "Criterion met"
- input.sequence: "GGCCGGCAUGGUCCCAGCCUCCUCGCUGGCGCCGGCUCGGCAACCUUCCGAGGGGACCGUCCCCUCGGUAAUGGCGAAUGGGACCCA [G38C A45C]"
  category.label: "Criterion not met"
- input.sequence: "GGCCGGAAUGGUCCCAGCCUCCUCGCUGGCGCCGGCUGGGCAACUUUCCGAGGGGACCGUCCCCUCGGUAAUGGCGAAUGGGACCCA [C7A A45U]"
  category.label: "Criterion met"
- input.sequence: "GGCCGGCAUGGUCCCAGCCUCCUCGCUGGCGCCGGCUGGGUAACAUUCCGAGGGGACCGUCCCCUCGGUAAAGGCGAAUGGGACCCA [C41U U72A]"
  category.label: "Criterion met"
- input.sequence: "GGCCGGCAUGGUCCCAGCCUCCUCGCUGGCGCCGGUUGGGCAACACUCCGAGGGGACCGUCCCCUCGGUAAUGGCGAAUGGGACCCA [C36U U46C]"
  category.label: "Criterion met"
- input.sequence: "GGCCGGCAAGGUCCCAGCAUCCUCGCUGGCGCCGGCUGGGCAACAUUCCGAGGGGACCGUCCCCUCGGUAAUGGCGAAUGGGACCCA [U9A C19A]"
  category.label: "Criterion not met"
- input.sequence: "GGCCGGCAUGGUCCCAGCCUCCUCGCUGGCGCCGCCUCGGCAACAUUCCGAGGGGACCGUCCCCUCGGUAAUGGCGAAUGGGACCCA [G35C G38C]"
  category.label: "Criterion not met"
- input.sequence: "GGCCGGCAUGGUCCCGGCCUCCUCGCUGGCGCCGGCUGGGCAACAUUCCGAGGGGACCGUCCUCUCGGUAAUGGCGAAUGGGACCCA [A16G C63U]"
  category.label: "Criterion met"
- input.sequence: "GGCCGGCAUGGUCCCAGCCUCCUCGCUGCCGCCGGCUGGGCAACAUUCCGAGGGGACCGUCCUCUCGGUAAUGGCGAAUGGGACCCA [G29C C63U]"
  category.label: "Criterion not met"
- input.sequence: "GGCCGGCAUGGUCCCAGCCUCCUCGCGGGCGCCGGCUGGGCAACAUUCCGAGGGGACCGUCCCCUCGGUAAUGGCGAAUGGAACCCA [U27G G82A]"
  category.label: "Criterion met"
- input.sequence: "GGCCGGCAUGGUCCCAGCCUCCUCGCUGGCGCCGGCUGGGCAACAUUCCGAGGGGACCGUCCCCUCGGUAAUGGCGAUUGGGACCCC [A78U A87C]"
  category.label: "Criterion met"
- input.sequence: "GGCCGGCAUGGUCCCAGCCUCCUCGCUGGCGCCGGCUGGGCAACGUUCCGAGGGGACCGUCCCCUCGGUAAUUGCGAAUGGGACCCA [A45G G73U]"
  category.label: "Criterion met"
- input.sequence: "GGCCGGCAUGGUCCCAGCCUCCUCGCUGACGCCGGCUGGGCAACAUUCCGUGGGGACCGUCCCCUCGGUAAUGGCGAAUGGGACCCA [G29A A51U]"
  category.label: "Criterion met"
- input.sequence: "GGCCGGCAUGGUCCCAGCCUCCUCGCUGAUGCCGGCUGGGCAACAUUCCGAGGGGACCGUCCCCUCGGUAAUGGCGAAUGGGACCCA [G29A C30U]"
  category.label: "Criterion not met"
- input.sequence: "GGCCGGCAUGGUCCCAGCCUCCUCGCUUGCGCCGGCUGGGCAACAUUCCGAGGGGACCGACCCCUCGGUAAUGGCGAAUGGGACCCA [G28U U60A]"
  category.label: "Criterion not met"
- input.sequence: "GGCCGGCAUGGUCCCAGCCUCCUCGCUGGCGCCGGCUGGGCAACAUUCCGCGGGGACCGUCCCCUCGGUAAUCGCGAAUGGGACCCA [A51C G73C]"
  category.label: "Criterion met"
- input.sequence: "GGCCGGCAUGGUCCCAGCCUCCUGGCUGGCGCCGGCUAGGCAACAUUCCGAGGGGACCGUCCCCUCGGUAAUGGCGAAUGGGACCCA [C24G G38A]"
  category.label: "Criterion not met"
- input.sequence: "GGCCGGCAUGAUCCCAGCCUCCUCGCUGGCGCCGGCUGGGCAACAUUCCGAGGGGACUGUCCCCUCGGUAAUGGCGAAUGGGACCCA [G11A C58U]"
  category.label: "Criterion met"
- input.sequence: "GGCCGGCAUGGUCCCAGCCUCCUCGCUGGCGCCGGCUGGGCAACAUUCCGCGGGGACCGUCCCCUCGGUAAUGGCGAGUGGGACCCA [A51C A78G]"
  category.label: "Criterion met"
- input.sequence: "GCCCGGCAUGGUCCCAGCCUCCUCGCUGGCGCCGGCUGGGCAACAUUCCGAGGGGACCGUCCCCUCAGUAAUGGCGAAUGGGACCCA [G2C G67A]"
  category.label: "Criterion not met"
- input.sequence: "GGCCGGCAUGGUGCCAGCCUCCUCGCUGGCGCCGGCUGGGCAACAUUCCGGGGGGACCGUCCCCUCGGUAAUGGCGAAUGGGACCCA [C13G A51G]"
  category.label: "Criterion not met"
- input.sequence: "GGCCGGCAUGGUCCCAGCCUCCUCGCUGGCGCCGGCUGGGCAACAUUCCGAGGGGACCGUACCCUCGGUAAUGGCGAAUGGGACCCC [C61A A87C]"
  category.label: "Criterion met"
- input.sequence: "GGCCAGCAUGGUCCCAGCCUCCUCGCUGGCGCCGGCUGGGCAACAUUCCGAGGGGACCGUCCCCUCGGUAAUGGCGAAAGGGACCCA [G5A U79A]"
  category.label: "Criterion not met"
- input.sequence: "GGCCGGCAUGGUCCCAGCCUCCUCGCUGGCGGCGGCUGGGCAACAUUCCGAGGGGACCGUUCCCUCGGUAAUGGCGAAUGGGACCCA [C32G C61U]"
  category.label: "Criterion not met"
- input.sequence: "GGCCGGCAUGGUCCCAGCCUCCUCGCUGGCGCCGACUGGGCAACAUUCCGAGGGUACCGUCCCCUCGGUAAUGGCGAAUGGGACCCA [G35A G55U]"
  category.label: "Criterion met"
- input.sequence: "GGCCGGCAUGGUCCCAGCCUCCUCGCUGGCGCCGGCUGGGCAACAUUCCGAGGGGACCGUCCCCUUGGUAAUGGCGAAUAGGACCCA [C66U G80A]"
  category.label: "Criterion met"
- input.sequence: "GGCCGGCAUGGUCCGAGCCUCCUCGCUGGCGCCGGCUGGGCAACAUUCCGAGGGGACCGUCCCCUCGGUAAUGGCGAAUGGGAUCCA [C15G C84U]"
  category.label: "Criterion met"
- input.sequence: "GGCCGGUAUGGUCCCAGCCUCCUCGCUGGGGCCGGCUGGGCAACAUUCCGAGGGGACCGUCCCCUCGGUAAUGGCGAAUGGGACCCA [C7U C30G]"
  category.label: "Criterion not met"
- input.sequence: "GGCCGGCAAGGUCCCAGCCUCCUCGCUGGCGCCGGCUGGGCAACAUUCCGAGGGGACCGUCCCCUCGGUAAUGGCGAAUGGGUCCCA [U9A A83U]"
  category.label: "Criterion met"
- input.sequence: "GGCCGGCAUGGUCCCAGCCUCCUCGCUGGCGCCGGCUGGGCAACAUUCCGAGGGGACCGUCCCCUCGGUAAUGGCCAAUGGGACCGA [G76C C86G]"
  category.label: "Criterion met"
- input.sequence: "GGCCGGCAUGGUGCCCGCCUCCUCGCUGGCGCCGGCUGGGCAACAUUCCGAGGGGACCGUCCCCUCGGUAAUGGCGAAUGGGACCCA [C13G A16C]"
  category.label: "Criterion not met"
- input.sequence: "GGCCGGCAUGGUCCCAGCCUCCUCGCUGGCGCCGGCAGGGCAACAUUCCCAGGGGACCGUCCCCUCGGUAAUGGCGAAUGGGACCCA [U37A G50C]"
  category.label: "Criterion not met"
- input.sequence: "GGCCGGCAUGGUCCCAGCCUCCUCGCUGGCGCCGGCUGGGCAACAUUCCGAGGGGACCGCCCCCUCGGUAAGGGCGAAUGGGACCCA [U60C U72G]"
  category.label: "Criterion met"
- input.sequence: "GGCCGGCAUGGUACCAGCCUCCUCGCUGGCGCCGGGUGGGCAACAUUCCGAGGGGACCGUCCCCUCGGUAAUGGCGAAUGGGACCCA [C13A C36G]"
  category.label: "Criterion not met"
- input.sequence: "GGCCGGCAUGGUCCCAGCCUCCUCGCUGGCGCCGGCUGGGCAACAUUCCGAGGGGACCGUCCCCUCGGUAAUGGCGAAGGGGACCCU [U79G A87U]"
  category.label: "Criterion met"
- input.sequence: "GGCCGGCAUGGUCCCAUCCUCGUCGCUGGCGCCGGCUGGGCAACAUUCCGAGGGGACCGUCCCCUCGGUAAUGGCGAAUGGGACCCA [G17U C22G]"
  category.label: "Criterion not met"
- input.sequence: "GGCCGGCAUGGUCCCAGCCUCCUCGCUGGCGCCGGCUGGGAAACAUUCCGGGGGGACCGUCCCCUCGGUAAUGGCGAAUGGGACCCA [C41A A51G]"
  category.label: "Criterion met"
- input.sequence: "GGCCGGCAUGGUCCCAGCCUCCUCGCUGGCGCCGGCUGUGCAACAUUCCGAGGGGACCGUCCCCUCGGUAAUGGCGAACGGGACCCA [G39U U79C]"
  category.label: "Criterion not met"
- input.sequence: "UGCCGGCAUGGUCCCAGCCUCCUCGCUGGCGCCGGCUGGGCAACAUUCCGAGGGGACCGUCCCCUCGGUAAUGGCGAAUGCGACCCA [G1U G81C]"
  category.label: "Criterion met"
- input.sequence: "UGCCGGCAUGGUCCCAGCCUCCGCGCUGGCGCCGGCUGGGCAACAUUCCGAGGGGACCGUCCCCUCGGUAAUGGCGAAUGGGACCCA [G1U U23G]"
  category.label: "Criterion met"
- input.sequence: "GGCCGGCAUGGUCCCAGCCUACUCGCUGGCGCCGGCUGGGCAACACUCCGAGGGGACCGUCCCCUCGGUAAUGGCGAAUGGGACCCA [C21A U46C]"
  category.label: "Criterion not met"
- input.sequence: "GGCGGGCAUGGUCGCAGCCUCCUCGCUGGCGCCGGCUGGGCAACAUUCCGAGGGGACCGUCCCCUCGGUAAUGGCGAAUGGGACCCA [C4G C14G]"
  category.label: "Criterion not met"
- input.sequence: "GGCCGGCAUGGUCCCAGCCUCCUCGCUGGCGCCGGCUGGGCAACAUUCUCAGGGGACCGUCCCCUCGGUAAUGGCGAAUGGGACCCA [C49U G50C]"
  category.label: "Criterion met"
- input.sequence: "GGCCGGCAUGGUCCCAGCCUCCUCGCUGGCGCCGGCUGGGCAACAUUCCAAGGGGACCGUCCACUCGGUAAUGGCGAAUGGGACCCA [G50A C63A]"
  category.label: "Criterion met"

Entry source: the RNAGym collection of RNA variant scans (doi:10.7554/elife.80360)
